Measured On: human Nav1.7 (Homo sapiens (Human))
Protocol Details: Human Nav1.7 inhibitory activity evaluation (automated patch clamp QPatch16X, HEK293A cells stably expressing human Nav1.7 and human Navβ1)
Format: cell-based
Cond: human Nav1.7, automated patch clamp
pIC50: −log10 of the molar value.
Listed molecules paired with reported pIC50
Metric Name: pIC50

{"Molecule": "N#Cc1cccc2c1CC(NC(=O)c1cn3c(n1)CCC(C(F)(F)F)C3)CO2 (stereo not shown) [Example 294]", "Metric Name": "pIC50", "Assay Value": "> 5.00"}
{"Molecule": "O=C(N[C@H]1COc2ccc(COCC(F)(F)F)cc2C1)c1cc2n(n1)CCC(C1CCCO1)O2 (stereo partly shown) [Example 651]", "Metric Name": "pIC50", "Assay Value": "> 6.00"}
{"Molecule": "O=C(N[C@H]1COc2ccc(CC(F)F)cc2C1)c1cc2n(n1)CCC(C(F)(F)F)O2 (stereo partly shown) [Example 172]", "Metric Name": "pIC50", "Assay Value": "> 5.00"}
{"Molecule": "CN1Cc2nc(C(=O)NCC(F)c3cccc(C(F)(F)F)c3)cn2CC1c1cccc(C(F)(F)F)n1 (stereo not shown) [Example 333]", "Metric Name": "pIC50", "Assay Value": "> 5.00"}

====

Measured On: human Nav1.7 (Homo sapiens (Human))
Protocol Details: Human Nav1.7 inhibitory activity evaluation (automated patch clamp QPatch16X, HEK293A cells stably expressing human Nav1.7 and human Navβ1)
Assay type: cell-based
Cond: human Nav1.7, automated patch clamp

{"Compound": "O=C(N[C@H]1COc2ccc(COCC(F)(F)F)cc2C1)c1cc2n(n1)CC(CCOCC(F)F)O2 (single isomer, unassigned) [224 (isomer B)]", "IC50": "< 1 µM"}
{"Compound": "N#Cc1ccc2c(c1)C[C@@H](NC(=O)c1cc3n(n1)CCC(CSC(F)(F)F)O3)CO2 (single isomer, unassigned) [156 (isomer B)]", "IC50": "< 10 µM"}
{"Compound": "N#Cc1ccc2c(c1)C[C@@H](NC(=O)c1cc3n(n1)CC(CCOC(F)(F)F)O3)CO2 (single isomer, unassigned) [209 (isomer A)]", "IC50": "< 10 µM"}
{"Compound": "N#Cc1ccc2c(c1)C[C@@H](NC(=O)c1cc3n(n1)CCC(COCC(F)(F)F)CO3)CO2 (stereo partly drawn)", "IC50": "< 1 µM"}
{"Compound": "N#Cc1ccc2c(c1)C[C@@H](NC(=O)c1cc3n(n1)CC(CCCOC(F)F)O3)CO2 (single isomer, unassigned) [248 (isomer B)]", "IC50": "< 10 µM"}
{"Compound": "COc1ncc(-c2ccc3c(c2)C[C@@H](NC(=O)c2cc4n(n2)CC(CCOCC2CC2)O4)CO3)cn1 (single isomer, unassigned) [204 (isomer A)]", "IC50": "< 1 µM"}

====

Listed molecules paired with reported IC50
Measured On: human Nav1.7 (Homo sapiens (Human))
Protocol Details: Human Nav1.7 inhibitory activity evaluation (automated patch clamp QPatch16X, HEK293A cells stably expressing human Nav1.7 and human Navβ1)
Format: cell-based
Cond: HEK293A cells stably expressing human Nav1.7 and human Navβ1, automated patch clamp QPatch16X
Metric Name: IC50

{"Molecule": "O=C(N[C@H]1COc2ccc(COCC(F)(F)F)cc2C1)c1cc2n(n1)CCC(COCC(F)(F)F)O2 (single isomer, unassigned) [129 (isomer A)]", "Assay Value": "< 1000 nM"}
{"Molecule": "O=C(N[C@H]1COc2ccc(-c3ccccn3)cc2C1)c1cc2n(n1)CCC(COCC(F)(F)F)O2 (single isomer, unassigned) [131 (isomer B)]", "Assay Value": "< 10000 nM"}
{"Molecule": "Cc1ccc(C2Cn3cc(C(=O)N[C@H]4COc5ccccc5C4)nc3CN2)s1 (stereo partly drawn)", "Assay Value": "< 10000 nM"}
{"Molecule": "N#Cc1ccc2c(c1)C[C@@H](NC(=O)c1cc3n(n1)CCC(COC(F)(F)F)O3)CO2 (single isomer, unassigned) [134 (isomer A)]", "Assay Value": "< 1000 nM"}
{"Molecule": "CCC1CCn2nc(C(=O)N[C@H]3COc4ccc(Cl)cc4C3)cc2O1 (stereo partly drawn)", "Assay Value": "< 1000 nM"}
{"Molecule": "O=C(N[C@H]1COc2ccc(CC(F)F)cc2C1)c1cc2n(n1)CCC(COCC1CC1)O2 (stereo partly drawn) [Example 108]", "Assay Value": "< 1000 nM"}
{"Molecule": "O=C(N[C@H]1COc2ccccc2C1)c1nc2n(c1Cl)CC(c1ccccc1)CC2 (stereo partly drawn)", "Assay Value": "< 10000 nM"}
{"Molecule": "O=C(N[C@H]1COc2ccccc2C1)c1cn2c(n1)CNC(CCc1ccc(F)cc1)C2 (stereo partly drawn)", "Assay Value": "< 10000 nM"}
{"Molecule": "N#Cc1ccc2c(c1)C[C@@H](NC(=O)c1cc3n(n1)CCC(c1ccccc1F)O3)CO2 (stereo partly drawn)", "Assay Value": "< 1000 nM"}
{"Molecule": "COc1cccc(-c2c(C(=O)N[C@H]3COc4ccc(Cl)cc4C3)nc3n2CCCC3)n1", "Assay Value": "< 1000 nM"}
{"Molecule": "CN(C(=O)c1cn2c(n1)CCC(C(F)(F)F)C2)[C@H]1COc2ccc(Cl)cc2C1 (stereo partly drawn) [Example 3]", "Assay Value": "< 1000 nM"}
{"Molecule": "CCC1CCn2nc(C(=O)N[C@H]3COc4ccc(-c5cnc(OC)nc5)cc4C3)cc2O1 (stereo partly drawn)", "Assay Value": "< 1000 nM"}
{"Molecule": "CCOc1cccc(CCNC(=O)c2cc3n(n2)CCC(c2ccccc2)O3)c1 (stereo not drawn)", "Assay Value": "< 10000 nM"}
{"Molecule": "CCOCC1CCn2nc(C(=O)N[C@H]3COc4ccc(-c5ccccn5)cc4C3)cc2O1 (single isomer, unassigned) [124 (isomer A)]", "Assay Value": "< 1000 nM"}
{"Molecule": "CN1Cc2nc(C(=O)N[C@H]3COc4cccc(F)c4C3)cn2CC1c1cccc(C(F)(F)F)n1 (stereo partly drawn)", "Assay Value": "< 10000 nM"}

====

Listed compounds paired with reported pIC50
Measured On: human Nav1.7 (Homo sapiens (Human), UniProt Q15858)
Sequence (Q15858 whole entry): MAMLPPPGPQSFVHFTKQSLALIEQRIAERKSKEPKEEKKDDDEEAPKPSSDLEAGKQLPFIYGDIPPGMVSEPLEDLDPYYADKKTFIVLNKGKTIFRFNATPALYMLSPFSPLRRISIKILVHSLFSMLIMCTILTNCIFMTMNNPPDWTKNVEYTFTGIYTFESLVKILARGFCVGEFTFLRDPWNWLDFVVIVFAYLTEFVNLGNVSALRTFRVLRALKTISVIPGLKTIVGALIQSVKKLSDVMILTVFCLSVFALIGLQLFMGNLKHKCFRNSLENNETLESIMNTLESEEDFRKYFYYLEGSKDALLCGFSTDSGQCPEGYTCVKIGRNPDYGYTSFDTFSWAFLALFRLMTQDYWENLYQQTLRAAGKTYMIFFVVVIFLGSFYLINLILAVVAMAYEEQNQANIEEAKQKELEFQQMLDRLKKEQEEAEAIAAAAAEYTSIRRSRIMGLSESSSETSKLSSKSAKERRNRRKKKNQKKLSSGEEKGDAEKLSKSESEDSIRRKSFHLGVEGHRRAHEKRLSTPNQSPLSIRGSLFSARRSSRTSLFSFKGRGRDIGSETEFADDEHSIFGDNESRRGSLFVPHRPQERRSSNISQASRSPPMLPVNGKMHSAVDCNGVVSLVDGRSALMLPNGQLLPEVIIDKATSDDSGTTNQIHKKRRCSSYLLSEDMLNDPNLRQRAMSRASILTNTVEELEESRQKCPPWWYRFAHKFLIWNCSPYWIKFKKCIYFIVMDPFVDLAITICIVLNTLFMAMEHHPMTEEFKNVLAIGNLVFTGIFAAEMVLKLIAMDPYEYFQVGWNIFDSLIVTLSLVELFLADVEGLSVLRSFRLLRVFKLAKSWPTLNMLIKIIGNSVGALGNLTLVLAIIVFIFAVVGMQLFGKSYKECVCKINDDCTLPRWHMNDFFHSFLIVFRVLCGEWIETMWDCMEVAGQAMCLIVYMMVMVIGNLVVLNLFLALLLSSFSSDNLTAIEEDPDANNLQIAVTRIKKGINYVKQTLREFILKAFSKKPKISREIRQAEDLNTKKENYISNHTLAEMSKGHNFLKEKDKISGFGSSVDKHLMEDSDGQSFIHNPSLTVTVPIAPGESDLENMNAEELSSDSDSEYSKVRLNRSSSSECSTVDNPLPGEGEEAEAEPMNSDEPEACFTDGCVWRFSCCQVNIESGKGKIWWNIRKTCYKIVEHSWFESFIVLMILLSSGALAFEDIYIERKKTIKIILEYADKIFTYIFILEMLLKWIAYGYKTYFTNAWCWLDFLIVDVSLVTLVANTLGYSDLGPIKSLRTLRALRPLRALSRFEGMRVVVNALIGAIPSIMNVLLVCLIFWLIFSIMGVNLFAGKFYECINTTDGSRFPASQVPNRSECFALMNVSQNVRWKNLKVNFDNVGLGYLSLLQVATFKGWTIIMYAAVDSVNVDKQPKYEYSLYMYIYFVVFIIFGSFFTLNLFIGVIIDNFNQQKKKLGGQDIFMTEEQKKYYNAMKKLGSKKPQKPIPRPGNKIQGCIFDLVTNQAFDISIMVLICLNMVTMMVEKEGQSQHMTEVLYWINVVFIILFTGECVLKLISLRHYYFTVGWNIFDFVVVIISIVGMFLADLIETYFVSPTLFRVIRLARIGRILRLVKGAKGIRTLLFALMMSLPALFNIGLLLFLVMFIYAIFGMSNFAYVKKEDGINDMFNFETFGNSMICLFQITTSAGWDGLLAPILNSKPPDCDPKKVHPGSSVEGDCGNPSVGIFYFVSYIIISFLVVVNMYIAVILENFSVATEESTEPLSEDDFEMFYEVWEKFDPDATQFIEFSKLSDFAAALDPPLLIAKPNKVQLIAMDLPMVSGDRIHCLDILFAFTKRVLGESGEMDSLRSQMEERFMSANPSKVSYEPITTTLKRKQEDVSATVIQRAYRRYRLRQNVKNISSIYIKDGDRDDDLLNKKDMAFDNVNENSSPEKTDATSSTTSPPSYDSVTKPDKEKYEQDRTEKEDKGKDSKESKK
Sequence (Q07699 19-218 partner): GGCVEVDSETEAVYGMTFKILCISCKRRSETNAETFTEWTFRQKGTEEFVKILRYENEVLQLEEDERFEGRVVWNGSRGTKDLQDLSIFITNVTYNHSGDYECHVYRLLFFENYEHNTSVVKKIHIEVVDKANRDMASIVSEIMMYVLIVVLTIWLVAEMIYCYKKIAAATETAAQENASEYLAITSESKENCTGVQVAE
Protocol Details: Human Nav1.7 inhibitory activity evaluation (automated patch clamp QPatch16X, HEK293A cells stably expressing human Nav1.7 and human Navβ1)
Type: cell-based
Cond: human Nav1.7, automated patch clamp
pIC50: −log10 of the molar value.

{"Compound": "O=C(N[C@H]1COc2ccc(CC(F)(F)F)cc2C1)c1cc2n(n1)CCC(COCC(F)(F)F)O2 (some centres unmarked)", "pIC50": "> 6.00"}
{"Compound": "N#Cc1ccc2c(c1)C[C@@H](NC(=O)c1cc3n(n1)CCCC(c1ccccc1)O3)CO2 (some centres unmarked)", "pIC50": "> 6.00"}
{"Compound": "O=C(N[C@H]1COc2ccc(Cl)cc2C1)c1cc2n(n1)CCN(CC(F)(F)C1CC1)C2", "pIC50": "> 6.00"}
{"Compound": "O=C(N[C@H]1COc2ccc(CC(F)F)cc2C1)c1cc2n(n1)CC(CCOC(F)F)O2 (single isomer, unassigned) [219 (isomer A)]", "pIC50": "> 5.00"}
{"Compound": "O=C(N[C@H]1COc2ccc(Cl)cc2C1)c1cc2n(n1)CCC(C1CCOCC1)O2 (some centres unmarked)", "pIC50": "> 6.00"}
{"Compound": "N#Cc1ccc2c(c1)C[C@@H](NC(=O)c1cc3n(n1)CC(CSCC(F)(F)F)O3)CO2 (single isomer, unassigned) [200 (isomer A)]", "pIC50": "> 5.00"}
{"Compound": "N#CC1(COCC2CCn3nc(C(=O)N[C@H]4COc5ccc(C(F)(F)F)cc5C4)cc3O2)CC1 (single isomer, unassigned) [554 (isomer A)]", "pIC50": "> 6.00"}
{"Compound": "O=C(c1cn2c(n1)CCC(c1cccc(N3CCOCC3)n1)C2)N1CCC(c2ccccc2)C1 (centres unmarked)", "pIC50": "> 5.00"}
{"Compound": "O=C(N[C@H]1COc2ccc(Cl)cc2C1)c1cc2n(n1)CCC(CC1CCOCC1)O2 (some centres unmarked)", "pIC50": "> 6.00"}
{"Compound": "O=C(c1cn2c(n1)CNC(c1cccc(OC(F)(F)F)c1)C2)N1CC[C@H](Oc2cccc(C(F)F)n2)C1 (some centres unmarked)", "pIC50": "> 5.00"}
{"Compound": "O=C(N[C@H]1COc2ccccc2C1)c1nc2n(c1CCCO)CC(C(F)(F)F)CC2 (some centres unmarked)", "pIC50": "> 5.00"}
{"Compound": "O=C(N[C@H]1COc2ccc(COCC(F)(F)F)cc2C1)c1cc2n(n1)CC(CCOC(F)F)O2 (some centres unmarked) [Example 214]", "pIC50": "> 6.00"}
{"Compound": "O=C(N[C@H]1COc2ccc(CC(F)F)cc2C1)c1cc2n(n1)CCC(COCC(F)(F)F)CO2 (single isomer, unassigned) [601 (isomer A)]", "pIC50": "> 5.00"}
{"Compound": "N#Cc1ccc2c(c1)C[C@@H](NC(=O)c1cc3n(n1)CCC(COCC1(C(F)(F)F)CC1)O3)CO2 (some centres unmarked)", "pIC50": "> 6.00"}
